- target-or-test-system: Melanocortin receptor 4 (Homo sapiens, UniProt P32245)
- Sequence (P32245 whole entry): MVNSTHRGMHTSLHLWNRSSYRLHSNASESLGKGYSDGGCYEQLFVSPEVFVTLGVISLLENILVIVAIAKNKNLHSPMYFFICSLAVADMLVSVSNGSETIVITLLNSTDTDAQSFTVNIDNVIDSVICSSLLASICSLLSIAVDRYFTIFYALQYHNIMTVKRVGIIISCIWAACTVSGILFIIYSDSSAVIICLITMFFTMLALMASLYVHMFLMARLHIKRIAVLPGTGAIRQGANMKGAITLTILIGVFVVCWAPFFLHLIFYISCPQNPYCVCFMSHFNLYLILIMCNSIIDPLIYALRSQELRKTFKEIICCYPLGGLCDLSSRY
- experimental-details: Displacement of [125I]NDP-alphaMSH from human MC4 receptor expressed in HEK293 cells relative to MT2
- Type: cell-based
observable: Activity (%)

>>> reported_value("CC(=O)N[C@H]1CSSC[C@@H](C(=O)N[C@@H](Cc2c[nH]c3ccccc23)C(N)=O)N(CCCCN=C(N)N)C(=O)[C@@H](Cc2ccccc2)NC(=O)[C@H](Cc2c[nH]cn2)NC1=O")
50
>>> reported_value("CC(=O)N[C@H]1CCC(=O)NCCC[C@@H](C(=O)N[C@@H](Cc2c[nH]c3ccccc23)C(N)=O)N(CCCCN=C(N)N)C(=O)[C@@H](Cc2ccccc2)NC(=O)[C@H](Cc2c[nH]cn2)NC1=O")
50
>>> reported_value("CC(=O)N[C@H]1CCC(=O)NCCC(C(=O)N[C@@H](Cc2c[nH]c3ccccc23)C(N)=O)N(CCCCN=C(N)N)C(=O)[C@@H](Cc2ccccc2)NC(=O)[C@H](Cc2c[nH]cn2)NC1=O (stereo partly drawn)")
0
>>> reported_value("CC(=O)N[C@H]1CSSC[C@@H](C(=O)N(CCCCN=C(N)N)[C@@H](Cc2c[nH]c3ccccc23)C(N)=O)NC(=O)[C@@H](Cc2ccccc2)NC(=O)[C@H](Cc2c[nH]cn2)NC1=O")
50
>>> reported_value("CC(=O)N[C@H]1CSSC[C@H](C(=O)N[C@@H](Cc2c[nH]c3ccccc23)C(N)=O)N(CCCCN=C(N)N)C(=O)[C@@H](Cc2ccccc2)NC(=O)[C@H](Cc2c[nH]cn2)NC1=O")
0
>>> reported_value("CC(=O)N[C@H]1CSSC[C@@H](C(=O)N(CCCCN=C(N)N)C(Cc2c[nH]c3ccccc23)C(N)=O)NC(=O)[C@@H](Cc2ccc3ccccc3c2)NC(=O)[C@H](Cc2c[nH]cn2)NC1=O (stereo in doubt)")
0

P. CC(=O)N[C@H]1CSSC[C@@H](C(=O)N(CCCCN=C(N)N)[C@H](Cc2c[nH]c3ccccc23)C(N)=O)NC(=O)[C@@H](Cc2ccccc2)NC(=O)[C@H](Cc2c[nH]cn2)NC1=O
Q. CC(=O)N[C@H]1CCC(=O)NCCC[C@@H](C(=O)N[C@@H](Cc2c[nH]c3ccccc23)C(N)=O)N(CCCCN=C(N)N)C(=O)[C@@H](Cc2ccc3ccccc3c2)NC(=O)[C@H](Cc2c[nH]cn2)NC1=O
(Q) Smaller Activity value? Options are P and Q // caller expects the label of the chosen entry
(A) Q

----------
- target-or-test-system: Melanocortin receptor 4 (Homo sapiens)
- experimental-details: Activity at hMC4R transfected in HEK293 cells assessed as intracellular cAMP accumulation relative to MT2
- Assay type: functional, cell-based
- Parameters: concentration or dose not given beside the values
observable: Activity (%)

Use the examples below as a reference point.
>>> reported_value("CC(=O)N[C@H]1CSSC[C@@H](C(=O)N(CCCCN=C(N)N)[C@@H](Cc2c[nH]c3ccccc23)C(N)=O)NC(=O)[C@@H](Cc2ccccc2)NC(=O)[C@H](Cc2c[nH]cn2)NC1=O")
18
>>> reported_value("CC(=O)N[C@H]1CSSC[C@@H](C(=O)N(CCCCN=C(N)N)C(Cc2c[nH]c3ccccc23)C(N)=O)NC(=O)[C@@H](Cc2ccc3ccccc3c2)NC(=O)[C@H](Cc2c[nH]cn2)NC1=O (stereo in doubt)")
0
>>> reported_value("CC(=O)N[C@H]1CSSC[C@H](C(=O)N[C@@H](Cc2c[nH]c3ccccc23)C(N)=O)N(CCCCN=C(N)N)C(=O)[C@@H](Cc2ccccc2)NC(=O)[C@H](Cc2c[nH]cn2)NC1=O")
0
>>> reported_value("CC(=O)N[C@H]1CSSC[C@@H](C(=O)N[C@@H](Cc2c[nH]c3ccccc23)C(N)=O)N(CCCCN=C(N)N)C(=O)[C@@H](Cc2ccccc2)NC(=O)[C@H](Cc2c[nH]cn2)NC1=O")
0
>>> reported_value("CC(=O)N[C@H]1CCC(=O)NCCC(C(=O)N[C@@H](Cc2c[nH]c3ccccc23)C(N)=O)N(CCCCN=C(N)N)C(=O)[C@@H](Cc2ccccc2)NC(=O)[C@H](Cc2c[nH]cn2)NC1=O (stereo partly drawn)")
0

A. CC(=O)N[C@H]1CCC(=O)NCCC[C@@H](C(=O)N[C@@H](Cc2c[nH]c3ccccc23)C(N)=O)N(CCCCN=C(N)N)C(=O)[C@@H](Cc2ccc3ccccc3c2)NC(=O)[C@H](Cc2c[nH]cn2)NC1=O
B. CC(=O)N[C@H]1CSSC[C@@H](C(=O)N(CCCCN=C(N)N)[C@H](Cc2c[nH]c3ccccc23)C(N)=O)NC(=O)[C@@H](Cc2ccccc2)NC(=O)[C@H](Cc2c[nH]cn2)NC1=O
(Q) Smaller Activity value? Options are A and B // caller expects the label of the chosen entry
(A) A
(A: 0%, B: 19%)

Every entry's value here was drawn from ChEMBL document CHEMBL1137337.
